# target: Monoamine oxidase (Rattus norvegicus, UniProt P19643+P21396)
# protocol notes: Inhibitory activity against rat brain mitochondrial Monoamine oxidase
reported metric: IC50 (nM)
I only need the number, in nM, no unit after it.

item smiles	reported
Cl.NC/C(=C/F)c1cccc(O)c1	50
COc1ccc(/C(=C\F)CN)cc1OC.Cl	25
C=CCN	500000
Cl.NCC(=C(F)F)c1ccccc1	10000
Cl.NC/C(=C\F)c1ccccc1	150

Given the entry Cl.NC/C(=C\Cl)c1ccccc1 , report its measured IC50.
500000

Given the entry Cl.NC/C(=C/Cl)c1ccccc1 , report its measured IC50.
100000

Given the entry Cl.NC/C(=C/F)c1ccc(O)c(O)c1 , report its measured IC50.
100

Hello, the source for this data is ChEMBL document CHEMBL1123104, in case you need it.
